assayed_system: Porcine ventricle myofibrils (ventricular myosin ATPase) (Sus scrofa, UniProt P79293)
Construct: Myofibrils from porcine cardiac muscle was isolated from the left ventricle of Yucatan minipigs; tissue Exemplar Genetics; host or cells: left ventricle of Yucatan minipigs, myofibrils prepared in house
Sequence (P79293 whole entry): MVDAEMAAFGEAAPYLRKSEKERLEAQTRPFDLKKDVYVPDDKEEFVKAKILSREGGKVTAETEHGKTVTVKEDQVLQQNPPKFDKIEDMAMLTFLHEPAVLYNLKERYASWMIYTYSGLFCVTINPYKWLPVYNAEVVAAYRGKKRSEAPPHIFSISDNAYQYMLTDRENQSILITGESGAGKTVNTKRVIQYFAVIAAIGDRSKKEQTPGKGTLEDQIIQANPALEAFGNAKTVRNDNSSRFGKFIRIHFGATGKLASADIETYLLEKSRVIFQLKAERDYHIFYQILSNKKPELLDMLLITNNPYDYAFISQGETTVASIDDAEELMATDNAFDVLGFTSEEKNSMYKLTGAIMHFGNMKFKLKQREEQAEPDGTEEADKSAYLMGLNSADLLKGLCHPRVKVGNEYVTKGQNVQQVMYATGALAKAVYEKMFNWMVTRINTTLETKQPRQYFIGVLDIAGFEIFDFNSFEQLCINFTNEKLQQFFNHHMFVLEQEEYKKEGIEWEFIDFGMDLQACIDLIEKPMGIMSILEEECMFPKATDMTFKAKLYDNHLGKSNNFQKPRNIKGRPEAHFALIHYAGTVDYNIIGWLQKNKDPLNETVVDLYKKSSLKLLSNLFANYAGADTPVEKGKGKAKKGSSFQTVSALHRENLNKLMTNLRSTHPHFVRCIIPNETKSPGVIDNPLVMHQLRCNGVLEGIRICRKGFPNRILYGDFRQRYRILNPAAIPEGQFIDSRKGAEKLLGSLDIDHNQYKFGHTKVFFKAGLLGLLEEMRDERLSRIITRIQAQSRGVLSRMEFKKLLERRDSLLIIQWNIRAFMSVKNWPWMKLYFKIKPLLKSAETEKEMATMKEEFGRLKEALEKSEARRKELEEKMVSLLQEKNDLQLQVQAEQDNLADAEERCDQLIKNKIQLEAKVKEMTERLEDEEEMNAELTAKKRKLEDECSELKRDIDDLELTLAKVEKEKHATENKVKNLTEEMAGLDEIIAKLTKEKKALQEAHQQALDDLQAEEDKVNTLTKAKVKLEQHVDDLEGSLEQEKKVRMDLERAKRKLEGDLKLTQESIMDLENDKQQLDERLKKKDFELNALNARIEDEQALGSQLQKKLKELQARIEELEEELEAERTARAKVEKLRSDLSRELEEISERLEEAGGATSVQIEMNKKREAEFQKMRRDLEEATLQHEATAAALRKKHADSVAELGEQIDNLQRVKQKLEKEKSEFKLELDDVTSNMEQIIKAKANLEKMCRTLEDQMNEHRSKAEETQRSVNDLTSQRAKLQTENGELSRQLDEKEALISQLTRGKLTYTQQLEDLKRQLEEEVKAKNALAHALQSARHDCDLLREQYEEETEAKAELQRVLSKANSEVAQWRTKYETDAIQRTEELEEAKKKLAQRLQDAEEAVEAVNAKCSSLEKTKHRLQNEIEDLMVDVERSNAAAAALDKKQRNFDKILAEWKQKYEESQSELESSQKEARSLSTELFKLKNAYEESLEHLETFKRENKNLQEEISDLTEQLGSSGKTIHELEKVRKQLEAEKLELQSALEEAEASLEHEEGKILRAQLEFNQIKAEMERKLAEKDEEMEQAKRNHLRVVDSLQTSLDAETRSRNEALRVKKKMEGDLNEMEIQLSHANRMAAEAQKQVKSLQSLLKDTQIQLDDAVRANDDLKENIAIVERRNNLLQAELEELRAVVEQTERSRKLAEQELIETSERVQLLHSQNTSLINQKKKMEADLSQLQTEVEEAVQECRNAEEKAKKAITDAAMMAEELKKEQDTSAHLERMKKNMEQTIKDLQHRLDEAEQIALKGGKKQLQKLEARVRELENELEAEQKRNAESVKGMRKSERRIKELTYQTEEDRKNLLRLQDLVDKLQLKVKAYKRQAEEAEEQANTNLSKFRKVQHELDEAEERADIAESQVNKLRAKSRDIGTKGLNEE
assay_name: Myofibril ATPase assay, porcine ventricle myofibrils
Assay type: biochemical, porcine (Yucatan minipigs)
conditions: Y75 value (no ‡ mark); porcine ventricle myofibrils
measurement_kind: Ventricular EC25 (µM)

Here are 9 compounds together with their reported answers.
C[C@H](NC(=O)C(F)(F)c1cc2c(F)c(F)ccc2[nH]c1=O)c1nccc(C#N)n1 (single isomer, unassigned) [compound 2562] : 0.75
Cc1c(C2(C(=O)N[C@H](C)c3ncc(C#N)cn3)CC2)c(=O)[nH]c2ccc(F)cc12 (single isomer, unassigned) [compound 2590] : 3.41
C[C@H](NC(=O)C(F)(F)c1cc2c(F)c(F)ccc2[nH]c1=O)c1ncc(C#N)cn1 (single isomer, unassigned) [compound 2546] : 1.23
C[C@@H](NC(=O)C1(c2cc3cc(F)ccc3[nH]c2=O)CC1)c1nccc(C#N)n1 (single isomer, unassigned) [compound 2507] : 100.00
Cc1ccncc1[C@H](C)NC(=O)Cc1c(C)c2cc(F)ccc2[nH]c1=O [compound 1049] : 100.00
Cc1nc(C#N)ncc1[C@H](C)NC(=O)Cc1c(C)c2c(F)c(F)ccc2[nH]c1=O [compound 1132] : 0.05
Cc1c(C2(C(=O)N[C@H](C)c3ncc(C#N)cc3F)CC2)c(=O)[nH]c2ccc(F)cc12 (single isomer, unassigned) [compound 2596] : 0.55
C[C@@H](NC(=O)C(F)(F)c1cc2c(F)c(F)ccc2[nH]c1=O)c1nccc(C#N)n1 (single isomer, unassigned) [compound 2561] : 0.79
C[C@H](NC(=O)Cc1c(C(F)F)c2cc(F)ccc2[nH]c1=O)c1ccc(F)cc1F [compound 106] : 0.20

(1) Cc1c(C(F)(F)C(=O)N[C@@H](C)c2ncc(C#N)cn2)c(=O)[nH]c2ccc(F)c(C#N)c12 (single isomer, unassigned) [compound 2522]
(2) Cc1c(F)ccc2[nH]c(=O)c(C(F)(F)C(=O)N[C@@H](C)c3ncc(C#N)cc3F)c(C#N)c12 (single isomer, unassigned) [compound 2520]
(3) C[C@@H](NC(=O)Cc1c(C2CC2)c2c(F)c(F)ccc2[nH]c1=O)c1ccc(C#N)cn1 [compound 25]
(4) C[C@@H](NC(=O)Cc1c(C2CC2)c2c(F)cccc2[nH]c1=O)c1ncc(C#N)cc1F [compound 1143]
QUERY: Descending sort on Ventricular EC25 required. As an answer, provide the labels arranged in the order called for.
RESULT: 3, 4, 1, 2

* * *

System: Rabbit Psoas myofibrils (skeletal myosin ATPase)
assay_name: Myofibril ATPase assay, rabbit psoas (skeletal) myofibrils
Format: biochemical
conditions: rabbit psoas myofibrils; Y75 value
measurement_kind: Skeletal EC25 (µM)

Here is how some molecules turned out for Skeletal EC25.
Cc1c(CC(=O)N[C@H](CO)c2ccc(C#N)cc2F)c(=O)[nH]c2cnnc(C#N)c12 : 100.00
Cc1c(CC(=O)N[C@@H](CO)c2ccc(C#N)cc2F)c(=O)[nH]c2ccnc(C(F)(F)F)c12 (single isomer, unassigned) : 0.03

(a) COC[C@H](NC(=O)Cc1c(C)c2c(C#N)nccc2[nH]c1=O)c1ccc(C#N)cc1F
(b) Cc1nncc2[nH]c(=O)c(CC(=O)N[C@@H](C)c3ncc(C#N)cc3F)cc12
QUERY: Among a and b , whose measured Skeletal EC25 is the smaller figure? Your answer should be the label of the entry you select.
RESULT: a

* * *

Tested on: Porcine atria myofibrils (atrial myosin ATPase)
assay_name: Myofibril ATPase assay, porcine atria myofibrils
Format: biochemical
conditions: porcine atria myofibrils; Y75 value (75% activity relative to no compound)
measurement_kind: Atrial EC25 (µM)

Cc1c(CC(=O)N[C@@H](C)c2ccc(C#N)cn2)c(=O)[nH]c2ccnc(C#N)c12 : 0.43
Cc1nccc2[nH]c(=O)c(CC(=O)NC[C@H](CO)c3ccccc3)c(C)c12 : 100.00
Cc1c(CC(=O)N[C@@H](C)c2ccc(F)cc2F)c(=O)[nH]c2ccnc(N)c12 : 2.64
Cc1nccc2[nH]c(=O)c(CC(=O)N[C@H](C)c3cccc(O)n3)c(C)c12 (single isomer, unassigned) : 100.00
Cc1ccccc1[C@@H](CO)NC(=O)Cc1c(C)c2c(C)nccc2[nH]c1=O (single isomer, unassigned) : 100.00

(1) Cc1c(C(F)(F)C(=O)N[C@H](C)c2ncc(C#N)cc2F)c(=O)[nH]c2ccnc(C#N)c12 (single isomer, unassigned)
(2) COc1ccccc1[C@@H](C)NC(=O)Cc1c(C)c2c(C)nccc2[nH]c1=O (single isomer, unassigned)
QUERY: For 1 and 2 , which recorded Atrial EC25 is lower? Please identify the chosen entry by its label.
RESULT: 1

* * *

Tested on: Porcine atria myofibrils (atrial myosin ATPase)
assay_name: Myofibril ATPase assay, porcine atria myofibrils
Assay type: biochemical
conditions: Y75 value (no ‡ mark); porcine atria myofibrils
measurement_kind: Atrial EC25 (µM)

(a) Cc1c(C(F)(F)C(=O)N[C@@H]2CCc3cc(C#N)cnc32)c(=O)[nH]c2ccc(F)cc12 (single isomer, unassigned)
(b) N#Cc1cnc2c(c1)CC[C@@H]2NC(=O)C1(c2cc3c(F)c(F)ccc3[nH]c2=O)CC1 (single isomer, unassigned)
(c) Cc1c(CC(=O)N[C@@H](C)c2ccc(F)cc2F)c(=O)[nH]c2ccc(F)c(Br)c12
QUERY: Rank descending by Atrial EC25. List the labels, following the order given in the request.
RESULT: b, a, c
(b: 100.00 µM, a: 5.06 µM, c: 0.04 µM)

* * *

Tested on: Porcine atria myofibrils (atrial myosin ATPase)
assay_name: Myofibril ATPase assay, porcine atria myofibrils
Assay type: biochemical
conditions: Y75 value (no ‡ mark); porcine atria myofibrils
measurement_kind: Atrial EC25 (nM)

Use the examples below as a reference point.
Cc1c([C@H](C)C(=O)N[C@H](C)c2ncc(C#N)cc2F)c(=O)[nH]c2ccc(F)c(F)c12 (single isomer, unassigned) : 40
CC(C(=O)N[C@@H](C)c1ccc(F)cc1F)c1cc2ccccc2[nH]c1=O (stereo partly shown) : 100000
Cc1c(CC(=O)N[C@H](C)c2ncc(C#N)cc2F)c(=O)[nH]c2ccc(F)c(F)c12 : 130
Cc1cccc2[nH]c(=O)c(CC(=O)N[C@@H](C)c3ccc(C#N)cn3)c(C#N)c12 : 490
C[C@H](NC(=O)Cc1c(C2CC2)c2c(F)c(F)ccc2[nH]c1=O)c1ccc(C#N)cn1 : 6130
Cc1c(C2(C(=O)N[C@H](C)c3ncc(C#N)cn3)CC2)c(=O)[nH]c2ccc(F)c(C#N)c12 (single isomer, unassigned) : 1290

(1) Cc1c(CC(=O)N[C@H](C)c2ccc(C#N)cc2F)c(=O)[nH]c2ccc(F)c(C3CC3)c12
(2) C[C@H](NC(=O)C(F)(F)c1cc2cc(F)ccc2[nH]c1=O)c1cc(C#N)ccn1 (single isomer, unassigned)
QUERY: Among 1 and 2 , which shows a numerically higher Atrial EC25 result? Bench note: the answer is the label of the chosen record.
RESULT: 2

* * *

Tested on: Rabbit Psoas myofibrils (skeletal myosin ATPase)
assay_name: Myofibril ATPase assay, rabbit psoas (skeletal) myofibrils
Format: biochemical
conditions: Y75 value (no ‡ mark); rabbit psoas myofibrils
measurement_kind: Skeletal EC25 (nM)

Cc1c(CC(=O)N[C@H](C)c2ncc(C#N)cc2F)c(=O)[nH]c2cc(F)ccc12 : 2270
Cc1c(C(F)(F)C(=O)N[C@H]2CCc3cc(C#N)cnc32)c(=O)[nH]c2ccc(F)cc12 (single isomer, unassigned) : 670

(I) C[C@@H](NC(=O)C1(c2cc3cc(F)ccc3[nH]c2=O)CC1)c1nccc(C#N)n1 (single isomer, unassigned)
(II) Cc1c(CC(=O)N[C@H](C)c2ccc(C#N)cn2)c(=O)[nH]c2ccc(F)cc12
QUERY: Which of these two has the smaller recorded Skeletal EC25: I or II ? Your answer should be the label of the entry you select.
RESULT: II

* * *

Test system: Rabbit Psoas myofibrils (skeletal myosin ATPase)
assay_name: Myofibril ATPase assay, rabbit psoas (skeletal) myofibrils
Type: biochemical
conditions: rabbit psoas myofibrils; Y75 value
measurement_kind: Skeletal EC25 (nM)

Cc1nc(C#N)cnc1[C@H](C)NC(=O)Cc1c(C)c2nc(C(F)(F)F)ccc2[nH]c1=O (single isomer, unassigned) [compound 139] : 20

(A) C[C@H](NC(=O)Cc1cc2c(F)nccc2[nH]c1=O)c1ccc(F)cc1F [compound 394]
(B) Cc1c(CC(=O)N[C@@H](c2ccc(F)cc2F)C(C)(C)O)c(=O)[nH]c2ccnc(C#N)c12 (single isomer, unassigned) [compound 279]
QUERY: Lower Skeletal EC25: A or B ? Answer format: the label of the selected item.
RESULT: A
(A: 30 nM, B: 1290 nM)
